Could you please report measured activity coefficient for the items listed next?
assay: activity coefficient (dimensionless); of the first substance listed, at infinite dilution; xn = mol fraction of the nth substance listed; conditions: 332.85 K; 101 kPa; Liquid; Chromatography; x1 = 0

Some solved cases for reference:
CCCCCC [hexane] + CCCCCC[n+]1ccn(C)c1.FC(F)(F)C(F)(F)[P-](F)(F)(F)(C(F)(F)C(F)(F)F)C(F)(F)C(F)(F)F; 5.69
Cc1ccccc1C [1,2-dimethylbenzene] + CCCCCC[n+]1ccn(C)c1.FC(F)(F)C(F)(F)[P-](F)(F)(F)(C(F)(F)C(F)(F)F)C(F)(F)C(F)(F)F; 0.947
CC(C)OC(C)C [diisopropyl ether] + CCCCCC[n+]1ccn(C)c1.FC(F)(F)C(F)(F)[P-](F)(F)(F)(C(F)(F)C(F)(F)F)C(F)(F)C(F)(F)F; 1.7

// for each compound below, give its activity coefficient
1. CCc1ccccc1 [ethylbenzene] + CCCCCC[n+]1ccn(C)c1.FC(F)(F)C(F)(F)[P-](F)(F)(F)(C(F)(F)C(F)(F)F)C(F)(F)C(F)(F)F
2. CCCCCCCC [octane] + CCCCCC[n+]1ccn(C)c1.FC(F)(F)C(F)(F)[P-](F)(F)(F)(C(F)(F)C(F)(F)F)C(F)(F)C(F)(F)F
3. CC(C)CO [2-methyl-1-propanol] + CCCCCC[n+]1ccn(C)c1.FC(F)(F)C(F)(F)[P-](F)(F)(F)(C(F)(F)C(F)(F)F)C(F)(F)C(F)(F)F

result:
[1.03, 10.5, 2.13]

Source: the NIST ThermoML archive (doi:10.1021/je200195q)
